For each entry below, report its mass density value.
protocol-conditions: 293.15 K; 101.33 kPa; Liquid
Write the answer as a number in kg/m3, unit excluded.

Q. Find the recorded mass density belonging to CCC[n+]1cccc(C)c1.O=S(=O)([N-]S(=O)(=O)C(F)(F)F)C(F)(F)F and report it.
A. 1452.8

Q. Find the recorded mass density belonging to CCCCCC[n+]1ccccc1.O=S(=O)([N-]S(=O)(=O)C(F)(F)F)C(F)(F)F [1-hexylpyridinium bis(trifluromethylsulfonyl)imide] and report it.
A. 1398.7

Q. Find the recorded mass density belonging to CCCC[n+]1ccc(C)cc1.O=S(=O)([N-]S(=O)(=O)C(F)(F)F)C(F)(F)F and report it.
A. 1416.9

Q. Find the recorded mass density belonging to CCCC[n+]1ccccc1.O=S(=O)([N-]S(=O)(=O)C(F)(F)F)C(F)(F)F [1-butylpyridinium bis[(trifluoromethyl)sulfonyl]imide] and report it.
A. 1453.4

Q. Find the recorded mass density belonging to CCCC[n+]1cccc(C)c1.O=S(=O)([N-]S(=O)(=O)C(F)(F)F)C(F)(F)F and report it.
A. 1417.4

Q. Find the recorded mass density belonging to CCCCCCCC[n+]1cccc(C)c1 and report it.
A. 1333.8
